B1: library; a variant is named by its letters at N, in order (parent)
chain: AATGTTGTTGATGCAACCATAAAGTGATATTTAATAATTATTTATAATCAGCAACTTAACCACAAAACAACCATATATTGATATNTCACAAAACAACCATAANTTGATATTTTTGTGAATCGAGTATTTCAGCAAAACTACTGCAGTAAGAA

Variants of: B1
Measurement notes: relative integration efficiency (T-RL orientation) vs wild-type transposon end (log2 (normalized fold change)); transposon end mutated: left end; higher = more efficient transposition
Details: with VchCAST RNA-guided transposition machinery (E. coli BL21(DE3) host, lacZ target)
Some variants, each annotated with its measured relative integration efficiency (log2).

Solved entries:
| Var | Result |
| --- | --- |
| CG A1C A2G T3C G4C T5G | -0.219 |
| TA A22T G24T T31C A33C T76A T78A T84A C87A A102T T111C T113C | -0.485 |
| CG G106T A107C T108G A109C | -2.01 |
| CG T45C A46T A47T C49T A50G C52T A53T T56A A59T C60T | -6.51 |
| CG C72T | -0.0527 |
| CG G24C | -0.164 |
| CG T45G A46C A47C T48G | -0.487 |
| CG A59C | 0.072 |
| CG A53T | 0.0743 |
| TA A16C G24T T30A A70C T76A T84A C87A A96C T110A T113A | -0.00649 |

IN: Recorded relative integration efficiency (log2) for CG T30G T31G T32G A33C , please?
OUT: -1.06

IN: Recorded relative integration efficiency (log2) for TA A23G G24T A33T T76A A77G C87T A102T T111C T113C , please?
OUT: -0.836

IN: Recorded relative integration efficiency (log2) for CG T112A T113A T114A G115C , please?
OUT: 0.0734

IN: Recorded relative integration efficiency (log2) for CG T28A A29T T30A T31A , please?
OUT: -1.12

IN: Recorded relative integration efficiency (log2) for CG A47G T48G C52T A53G C55G T56C T57G A58C C60A A62G A66T A67T , please?
OUT: -2.77

IN: Recorded relative integration efficiency (log2) for CG C121A G122T A123C G124T T125G , please?
OUT: 0.666

IN: Recorded relative integration efficiency (log2) for CG A19T T20A A21T A22T , please?
OUT: -1.21

IN: Recorded relative integration efficiency (log2) for CG C55G , please?
OUT: 0.177

IN: Recorded relative integration efficiency (log2) for TA A16C G24T T30A A70C T76A T84A C87A A96C T112G T113C , please?
OUT: 0.259

IN: Recorded relative integration efficiency (log2) for CG T30A , please?
OUT: 0.256

IN: Recorded relative integration efficiency (log2) for CG T74C , please?
OUT: -1.33

IN: Recorded relative integration efficiency (log2) for CG A53T A54T , please?
OUT: -0.0854

IN: Recorded relative integration efficiency (log2) for TG A23G G24T A33T A70C T76A T86G , please?
OUT: -0.149

IN: Recorded relative integration efficiency (log2) for CG A96C C97A C98A A99C , please?
OUT: -2.25

IN: Recorded relative integration efficiency (log2) for TG A16C G24T T32G A33C T76A T78G C87A , please?
OUT: 0.525

Values were extracted from the supplement of paper PMC10201428.
